- system_tested: T1, human BTN2A2 expressed on HEK293F cells transfected with BTN2A2-Flag plasmid (human, UniProt Q8WVV5 33-523)
- T1 construct: HEK293F cells here are not knocked out for endogenous BTN2/BTN3; also called HEK-BTN2 cells; not shown: Flag tag
- T1 sequence: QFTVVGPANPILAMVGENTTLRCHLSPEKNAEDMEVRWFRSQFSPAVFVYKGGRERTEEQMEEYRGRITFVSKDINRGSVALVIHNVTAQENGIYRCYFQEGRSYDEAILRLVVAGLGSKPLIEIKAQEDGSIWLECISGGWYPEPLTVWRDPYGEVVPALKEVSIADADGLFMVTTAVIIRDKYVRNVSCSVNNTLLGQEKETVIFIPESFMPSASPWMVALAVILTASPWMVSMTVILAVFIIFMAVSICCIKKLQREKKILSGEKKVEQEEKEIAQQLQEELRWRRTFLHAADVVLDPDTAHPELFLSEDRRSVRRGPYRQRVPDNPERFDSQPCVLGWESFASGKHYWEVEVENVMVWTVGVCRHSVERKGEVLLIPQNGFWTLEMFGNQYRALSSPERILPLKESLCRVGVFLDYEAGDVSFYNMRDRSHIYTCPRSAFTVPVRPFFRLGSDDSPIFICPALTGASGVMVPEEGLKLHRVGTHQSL
- assay_comment: flow cytometry on HEK-BTN2 cells (summary table, repeats the 5th table)
measured_parameter: log10 of EC50 (log10 of the value in µg/mL)

binder	log10 of EC50
mAb6 (mouse anti-human BTN2 mAb 8.16) (antibody, V domains shown, Mouse IgG1 purified from hybridoma supernatant; also called CNCM I-5236) VH: EVKLLESGGGLVQPGGSLKLSCAASGFDFSGYWMTWVRQAPGKGLEWIGEINPDSSTINYTPSLRDKFIISRDNAKNTLYLQMSKVRSEDTALYFCARGSYYPSYWGQGTLVTVSA VL: DIVLTQSPASLAVSLGQRATISCRASKSVSSSGYSYMNWYQQKPGQPPKLLIYLASNLESGVPARFSGSGSGTDFTLNIHPVEDEDAATYYCQHSRELPHTFGGGTKLEIK	-0.96
mAb3 (mouse anti-human BTN2 mAb 7.28) (antibody, V domains shown, Mouse IgG1 purified from hybridoma supernatant; also called CNCM I-5233) VH: QVHLQQSGAELMKPGASVKISCKATGYTFSSYWIEWVKQRPGHGREWIGEILPGSGSTKYNEKFRGKATFAADTSSNTAYVQLSSLTSEDSAVYYCARLKGYYGGGAMDYWGQGTSVTVSS VL: DVQITQSPSYLAASPGETITINCRASKSISKYLAWYQEKPGKTNELLIYSGSTLQSGIPSRFSGSGSGTDFTLTISSLEPEDFAMYYCQQHNEYPWTFGGGTKLEIK	1.50
mAb2 (mouse anti-human BTN2 mAb 5.28) (antibody, V domains shown, Mouse IgG1 purified from hybridoma supernatant; also called CNCM I-5232) VH: QIQLVQSGPELKKPGETVKISCKASGYTFTDYSMNWVKQAPGKGLKWVGRINTETGEPTYADDFKGRFAFSLETSASTAYLQIKNLKNEDTATYFCVRDYAKRWGQGTSVTVSS VL: DIVMTQSHKFMSTSVGDRVSITCKASQDVITAVAWYQQKPGQSPKLLIYSTSYRYTGVPDRFTGSGSGTDFTFTISSVQAEDLAVYYCLQHYTTPWTFGGGTKLEIK	-1.15
mAb1 (mouse anti-human BTN2 mAb 4.15) (antibody, V domains shown, Mouse IgG1 purified from hybridoma supernatant; also called CNCM I-5231) VH: QVQLQQSGAELVKPGASVKLSCKASGYIFTSYDINWVRQRPEQGLEWIGWIFPGDDSIIQNEKFKGKATLTTDKSSSTVYMQLSRLTSEDSAVYFCARLGPLRGFTYWGQGTLVTVSA VL: DIVLTQSPASLAVSLGQRATISCRASESVDRYGSSFMHWYQQKPGQPPKLLIYRASNLESGIPARFSGSGSRTDFTLTINPVEADDVATYYCQQSNEDPWTFGGGTKLEIK	-1.15
mAb5 (mouse anti-human BTN2 mAb 8.15) (antibody, V domains shown, Mouse IgG1 purified from hybridoma supernatant; also called CNCM I-5235) VH: EVKLLESGGGLVQPGGSLKLSCAASGFDFSGYWMTWVRQAPGKGLEWIGEINPDSSTINYTPSLRDKFIISRDNAKNTLYLQMSKVRSEDTALYFCARGSYYPSYWGQGTLVTVSA VL: DIVLTQSPASLAVSLGQRATISCRASKSVSSSGYSYMNWYQQKPGQPPKLLIYLASNLESGVPARFSGSGSGTDFTLNIHPVEDEDAATYYCQHSRELPHTFGGGTKLEIK	-1.00
mAb4 (mouse anti-human BTN2 mAb 7.48) (antibody, V domains shown, Mouse IgG1 purified from hybridoma supernatant; also called CNCM I-5234) VH: EVQLVESGGDLVKPGGSLKLSCAASGFTFSDFYMYWVRRTPEKRLEWVATISDGGSHTYYPDSVKGRFTISRDNAKNNLYLQMRSLKSEDTAMYYCGRDTTIITPYWGQGTLVTVSA VL: QSVVTQESALTTSPGETVTLTCRSSTGAVTTSNYANWVQEKPDHLFTGLIGGTNNRAPGVPARFSGSLIGDKAALTITGAQTEDEAIYFCGLWYSNHWVFGGGTKLTVL	-1.10

From: patent US20200283519A1
